Test system: L1210 murine leukemia cells
Details: Table 9
Numbered stars: 1 amine (or outer) side, 2 acyl side, 3 side chain; on linkers, the order of the positions; unused ones are H or OH. Bridge positions count the residues as written; N and C are the ends. Square brackets hold non-standard residues; d marks the D form. Peptide text beside a SMILES is read from it. * marks the point of attachment. X7 = CC[C@H](C)[C@@H](N[*:1])[C@@H](O)CC(=O)O[C@H](C(=NO)[C@H](C)C(=O)[*:2])C(C)C; X1 = CC[C@H](C)[C@@H](N[*:1])[C@@H](O)CC(=O)O[C@H](C(=O)[C@H](C)C(=O)[*:2])C(C)C; NMeY = CN[C@@H](Cc1ccc(O)cc1)C(=O)O; dNMeL = CN[C@H](CC(C)C)C(=O)O; Pyruvoyl = CC(=O)C(=O)*; Propionyl = CCC(=O)*
Would you mind telling me the reported Cytotoxicity L1210 IC50 of each entry?
The answer is to be given in ng/mL; state only the numeric part.

Measured Cytotoxicity L1210 IC50, CC[C@H](C)[C@H]1NC(=O)[C@@H](NC(=O)[C@@H](CC(C)C)N(C)C(=O)[C@@H]2CCCN2C(=O)C(C)=O)[C@@H](C)OC(=O)[C@H](Cc2ccc(OC)cc2)N(C)C(=O)[C@@H]2CCCN2C(=O)[C@H](CC(C)C)NC(=O)[C@@H](C)C(=O)[C@H](C(C)C)OC(=O)C[C@@H]1O [[Pyruvyl^9]Didemnin B (106), Dehydrodidemnin B] (Pyruvoyl-P[dNMeL]T[X1]LP[NMeY](Me); ester 3-C) : 0.2

Measured Cytotoxicity L1210 IC50, CC[C@H](C)[C@H]1NC(=O)[C@@H](NC(=O)[C@@H](CC(C)C)N(C)C(=O)[C@@H](N)CC(C)C)[C@@H](C)OC(=O)[C@H](Cc2ccc(OC)cc2)N(C)C(=O)[C@@H]2CCCN2C(=O)[C@H](CC(C)C)NC(=O)[C@@H](C)C(=O)[C@H](C(C)C)OC(=O)C[C@@H]1O [N-(L-Leu)Didemnin A (99), N-(L-Leu)didemnin A] (H-L[dNMeL]T[X1]LP[NMeY](Me); ester 3-C) : 4

Measured Cytotoxicity L1210 IC50, CC[C@H](C)[C@@H](NC(=O)[C@@H](NC(=O)[C@@H](CC(C)C)NC)[C@@H](C)O)[C@@H](O)CC(=O)O[C@H](C(=O)[C@H](C)C(=O)N[C@@H](CC(C)C)C(=O)N1CCC[C@H]1C(=O)N(C)[C@@H](Cc1ccc(OC)cc1)C(=O)O)C(C)C [Acyclodidemnin A (16), Acyclodidemnin A] (H-[dNMeL]T[X1]LP[NMeY](Me)-OH) : 30

Measured Cytotoxicity L1210 IC50, CCC(=O)N(C)[C@H](CC(C)C)C(=O)N[C@@H]1C(=O)N[C@H]([C@@H](C)CC)[C@@H](O)CC(=O)O[C@@H](C(C)C)C(=O)[C@H](C)C(=O)N[C@@H](CC(C)C)C(=O)N2CCC[C@H]2C(=O)N(C)[C@@H](Cc2ccc(OC)cc2)C(=O)O[C@@H]1C [(N-Propionyl)Didemnin A (98), N-propionyl-didemnin A] (Propionyl-[dNMeL]T[X1]LP[NMeY](Me); ester 2-C) : 0.3

Measured Cytotoxicity L1210 IC50, CC[C@H](C)[C@H]1NC(=O)[C@@H](NC(=O)[C@@H](CC(C)C)NC)[C@@H](C)OC(=O)[C@H](Cc2ccc(OC)cc2)N(C)C(=O)[C@@H]2CCCN2C(=O)[C@H](CC(C)C)NC(=O)[C@@H](C)C(=NO)[C@H](C(C)C)OC(=O)C[C@@H]1O [[HydroxyiminoHip^2]-Didemnin A (65), [HydroxyiminoHip^2]didemnin A] (H-[dNMeL]T[X7]LP[NMeY](Me); ester 2-C) : 20

---

Numbered stars: 1 amine (or outer) side, 2 acyl side, 3 side chain; on linkers, the order of the positions; unused ones are H or OH. Square brackets hold non-standard residues; d marks the D form. Peptide text beside a SMILES is read from it. X1 = CC[C@H](C)[C@@H](N[*:1])[C@@H](O)CC(=O)O[C@H](C(=O)[C@H](C)C(=O)[*:2])C(C)C; NMeY = CN[C@@H](Cc1ccc(O)cc1)C(=O)O; dNMeL = CN[C@H](CC(C)C)C(=O)O
PARAMETER_MEASURED: CV-1
Respond numerically, and do not add a unit to the figure.

Tested on CV-1 monkey kidney cells, the item CC[C@H](C)[C@H]1NC(=O)[C@@H](NC(=O)[C@@H](CC(C)C)NC)[C@@H](C)OC(=O)[C@H](Cc2ccc(OC)cc2)N(C)C(=O)[C@@H]2CCCN2C(=O)[C@H](CC(C)C)NC(=O)[C@@H](C)[C@@H](O)[C@H](C(C)C)OC(=O)C[C@@H]1OC(C)=O showed CV-1 equal to 0

Tested on CV-1 monkey kidney cells, the item CC[C@H](C)[C@H]1NC(=O)[C@@H](NC(=O)[C@@H](CC(C)C)N(C)C(=O)[C@@H]2CCCN2C(=O)[C@H](C)O)[C@@H](C)OC(=O)[C@H](Cc2ccc(O)cc2)NC(=O)[C@@H]2CCCN2C(=O)[C@H](CC(C)C)NC(=O)[C@@H](C)C(=O)[C@H](C(C)C)OC(=O)C[C@@H]1O showed CV-1 equal to 0

Tested on CV-1 monkey kidney cells, the item CC[C@H](C)[C@@H](NC(=O)[C@@H](NC(=O)[C@@H](CC(C)C)NC)[C@@H](C)O)[C@@H](O)CC(=O)O[C@H](C(=O)[C@H](C)C(=O)N[C@@H](CC(C)C)C(=O)N1CCC[C@H]1C(=O)N(C)[C@@H](Cc1ccc(OC)cc1)C(=O)O)C(C)C [Acyclodidemnin A (16), Acyclodidemnin A] (H-[dNMeL]T[X1]LP[NMeY](Me)-OH) showed CV-1 equal to 0

---

System: L1210
Conditions: dose 12.5 ng/mL
Numbered stars: 1 amine (or outer) side, 2 acyl side, 3 side chain; on linkers, the order of the positions; unused ones are H or OH. Bridge positions count the residues as written; N and C are the ends. Square brackets hold non-standard residues; d marks the D form. Peptide text beside a SMILES is read from it. * marks the point of attachment. X1 = CC[C@H](C)[C@@H](N[*:1])[C@@H](O)CC(=O)O[C@H](C(=O)[C@H](C)C(=O)[*:2])C(C)C; X3 = CC[C@H](C)[C@H](N[*:1])[C@@H](O)CC(=O)O[C@H](C(=O)[C@H](C)C(=O)[*:2])C(C)C; NMeY = CN[C@@H](Cc1ccc(O)cc1)C(=O)O; aThr = C[C@H](O)[C@H](N)C(=O)O; dNMeL = CN[C@H](CC(C)C)C(=O)O; Octanoyl = CCCCCCCC(=O)*; Hexanoyl = CCCCCC(=O)*; Pentanoyl = CCCCC(=O)*; Propionyl = CCC(=O)*
Would you mind telling me the reported Cytotoxicity percent L1210 inhibition of each entry?
The answer is to be given in %; state only the numeric part.

Measured Cytotoxicity percent L1210 inhibition, CC[C@H](C)[C@H]1NC(=O)[C@@H](NC(=O)[C@@H](CC(C)C)NC)[C@@H](C)OC(=O)[C@H](Cc2ccc(OC)cc2)N(C)C(=O)[C@@H]2CCCN2C(=O)[C@H](CC(C)C)NC(=O)[C@@H](C)C(=O)[C@H](C(C)C)OC(=O)C[C@@H]1O [Didemnin A (1), Didemnin A, reference compound] (H-[dNMeL]T[X1]LP[NMeY](Me); ester 2-C) : 19

Measured Cytotoxicity percent L1210 inhibition, CCCCCCCC(=O)N(C)[C@H](CC(C)C)C(=O)N[C@@H]1C(=O)N[C@H]([C@@H](C)CC)[C@@H](O)CC(=O)O[C@@H](C(C)C)C(=O)[C@H](C)C(=O)N[C@@H](CC(C)C)C(=O)N2CCC[C@H]2C(=O)N(C)[C@@H](Cc2ccc(OC)cc2)C(=O)O[C@@H]1C [N^a -Octanoyl-, N-octanoyl didemnin A] (Octanoyl-[dNMeL]T[X1]LP[NMeY](Me); ester 2-C) : 93

Measured Cytotoxicity percent L1210 inhibition, CCCCCC(=O)N(C)[C@H](CC(C)C)C(=O)N[C@@H]1C(=O)N[C@H]([C@@H](C)CC)[C@@H](O)CC(=O)O[C@@H](C(C)C)C(=O)[C@H](C)C(=O)N[C@@H](CC(C)C)C(=O)N2CCC[C@H]2C(=O)N(C)[C@@H](Cc2ccc(OC)cc2)C(=O)O[C@@H]1C [N^a -Hexanoyl-, N-hexanoyl didemnin A] (Hexanoyl-[dNMeL]T[X1]LP[NMeY](Me); ester 2-C) : 89

Measured Cytotoxicity percent L1210 inhibition, CCCCC(=O)N(C)[C@H](CC(C)C)C(=O)N[C@@H]1C(=O)N[C@H]([C@@H](C)CC)[C@@H](O)CC(=O)O[C@@H](C(C)C)C(=O)[C@H](C)C(=O)N[C@@H](CC(C)C)C(=O)N2CCC[C@H]2C(=O)N(C)[C@@H](Cc2ccc(OC)cc2)C(=O)O[C@@H]1C [N^a -Pentanoyl-, N-pentanoyl didemnin A] (Pentanoyl-[dNMeL]T[X1]LP[NMeY](Me); ester 2-C) : 81

Measured Cytotoxicity percent L1210 inhibition, CCC(=O)N(C)[C@H](CC(C)C)C(=O)N[C@@H]1C(=O)N[C@H]([C@@H](C)CC)[C@@H](O)CC(=O)O[C@@H](C(C)C)C(=O)[C@H](C)C(=O)N[C@@H](CC(C)C)C(=O)N2CCC[C@H]2C(=O)N(C)[C@@H](Cc2ccc(OC)cc2)C(=O)O[C@@H]1C [(N-Propionyl)Didemnin A (98), N-propionyl-didemnin A] (Propionyl-[dNMeL]T[X1]LP[NMeY](Me); ester 2-C) : 95

Measured Cytotoxicity percent L1210 inhibition, CC[C@H](C)[C@H]1NC(=O)[C@@H](NC(=O)[C@@H](CC(C)C)N(C)C(=O)[C@@H]2CCCN2C(=O)C(C)O)[C@@H](C)OC(=O)[C@H](Cc2ccc(OC)cc2)N(C)C(=O)[C@@H]2CCCN2C(=O)[C@H](CC(C)C)NC(=O)[C@@H](C)C(=O)[C@H](C(C)C)OC(=O)C[C@@H]1O (stereo partly shown) [Didemnin B (17), Didemnin B, reference compound] : 95

Measured Cytotoxicity percent L1210 inhibition, CC[C@H](C)[C@@H]1NC(=O)[C@@H](NC(=O)[C@@H](CC(C)C)N(C)C(C)=O)[C@H](C)OC(=O)[C@H](Cc2ccc(OC)cc2)N(C)C(=O)[C@@H]2CCCN2C(=O)[C@H](CC(C)C)NC(=O)[C@@H](C)C(=O)[C@H](C(C)C)OC(=O)C[C@@H]1O [N-Acetyldidemnin A (54), N-Acetyl didemnin A] (Ac-[dNMeL][aThr][X3]LP[NMeY](Me); ester 2-C) : 93

Data origin: patent US5294603A
